# IC50 per entry
molecular target: VLA-4 (a4b1) (Homo sapiens (Human), UniProt P05556+P13612); assay: sVCAM flow cytometry cell-based assay (inhibition of soluble VCAM-1 binding to G2 ALL cells); details: as listed in TABLE 6; read-out: sVCAM IC50;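 also: compounds at 0.1 to 1000 nM preincubated 30 min with G2 ALL cells, then VCAM/Fc added for 30 min, bound VCAM-1 detected by PE secondary antibody, percent binding cells by flow cytometry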
Sequence (P13612 34-1032): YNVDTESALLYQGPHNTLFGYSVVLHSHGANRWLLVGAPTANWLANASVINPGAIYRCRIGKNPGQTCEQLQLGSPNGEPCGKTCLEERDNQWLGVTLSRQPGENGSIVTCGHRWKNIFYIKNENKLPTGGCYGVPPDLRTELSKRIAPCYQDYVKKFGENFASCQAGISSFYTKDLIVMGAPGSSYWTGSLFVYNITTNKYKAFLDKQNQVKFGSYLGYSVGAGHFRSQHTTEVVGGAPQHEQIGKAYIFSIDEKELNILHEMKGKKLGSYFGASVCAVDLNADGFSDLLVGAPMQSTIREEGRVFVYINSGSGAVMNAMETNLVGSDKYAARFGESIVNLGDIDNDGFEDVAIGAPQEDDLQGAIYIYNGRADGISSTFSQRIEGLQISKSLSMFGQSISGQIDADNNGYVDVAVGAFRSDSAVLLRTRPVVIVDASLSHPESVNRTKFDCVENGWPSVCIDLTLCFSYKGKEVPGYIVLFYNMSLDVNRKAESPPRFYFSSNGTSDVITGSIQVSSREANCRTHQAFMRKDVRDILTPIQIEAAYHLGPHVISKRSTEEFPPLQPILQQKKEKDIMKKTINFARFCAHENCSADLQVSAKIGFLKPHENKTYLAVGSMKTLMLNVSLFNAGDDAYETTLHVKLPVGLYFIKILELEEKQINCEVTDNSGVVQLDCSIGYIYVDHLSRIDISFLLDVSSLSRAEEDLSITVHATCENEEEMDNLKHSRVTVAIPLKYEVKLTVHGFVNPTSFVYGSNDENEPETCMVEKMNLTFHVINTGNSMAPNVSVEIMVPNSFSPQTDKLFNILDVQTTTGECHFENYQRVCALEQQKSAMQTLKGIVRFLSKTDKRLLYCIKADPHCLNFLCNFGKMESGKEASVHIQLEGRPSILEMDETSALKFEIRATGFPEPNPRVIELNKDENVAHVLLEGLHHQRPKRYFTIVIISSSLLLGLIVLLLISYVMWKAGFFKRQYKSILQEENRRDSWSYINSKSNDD
Sequence (P05556 21-798): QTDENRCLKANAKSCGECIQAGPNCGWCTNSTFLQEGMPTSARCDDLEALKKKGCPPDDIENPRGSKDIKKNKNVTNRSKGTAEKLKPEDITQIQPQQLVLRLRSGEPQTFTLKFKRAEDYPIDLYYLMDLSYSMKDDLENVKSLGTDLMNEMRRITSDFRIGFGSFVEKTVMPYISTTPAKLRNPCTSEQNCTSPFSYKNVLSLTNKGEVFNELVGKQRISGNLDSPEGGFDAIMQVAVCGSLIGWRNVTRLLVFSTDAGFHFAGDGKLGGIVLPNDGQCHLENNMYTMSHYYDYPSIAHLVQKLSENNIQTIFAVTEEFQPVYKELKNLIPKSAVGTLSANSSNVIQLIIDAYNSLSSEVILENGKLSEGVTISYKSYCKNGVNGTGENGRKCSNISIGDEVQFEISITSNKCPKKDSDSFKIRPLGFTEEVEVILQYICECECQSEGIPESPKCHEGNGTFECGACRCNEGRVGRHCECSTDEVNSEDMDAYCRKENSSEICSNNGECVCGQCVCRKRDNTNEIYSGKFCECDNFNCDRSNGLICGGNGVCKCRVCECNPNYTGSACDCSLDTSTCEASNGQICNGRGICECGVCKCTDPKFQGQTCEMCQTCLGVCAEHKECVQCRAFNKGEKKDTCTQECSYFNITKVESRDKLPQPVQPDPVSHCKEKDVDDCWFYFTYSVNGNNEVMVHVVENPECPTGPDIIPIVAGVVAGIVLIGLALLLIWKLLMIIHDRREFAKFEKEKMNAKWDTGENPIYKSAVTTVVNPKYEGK
# value in nM; strip the unit string

Would you please look over these solved cases?
CCOCc1cc(OC)c(-c2ccc(C[C@H](NC(=O)[C@@H]3CCCN3S(=O)(=O)c3cc(Cl)cc(Cl)c3)C(=O)O)cc2)c(OC)c1 [Example C6]	0.445
COc1cc(CO)cc(OC)c1-c1ccc(C[C@H](NC(=O)[C@@H]2CCCN2S(=O)(=O)c2cc(Cl)cc(Cl)c2)C(=O)O)cc1 [Example C8]	0.199
COc1cccc(OC)c1-c1ccc(C[C@H](NC(=O)[C@]2(C)CCCN2S(=O)(=O)c2cc(Cl)cc(Cl)c2)C(=O)O)cc1 [Example C5]	3.59

Query compound follows.
// sample COCCOCCOCCOCc1cc(OC)c(-c2ccc(C[C@H](NC(=O)[C@@H]3CCCN3S(=O)(=O)c3cc(Cl)cc(Cl)c3)C(=O)O)cc2)c(OC)c1 [Example C7] , its IC50 was 0.194
